- TESTED SYSTEM: P-glycoprotein (Pgp) at the blood-brain barrier (Homo sapiens)
- Sequence (P08183 whole entry): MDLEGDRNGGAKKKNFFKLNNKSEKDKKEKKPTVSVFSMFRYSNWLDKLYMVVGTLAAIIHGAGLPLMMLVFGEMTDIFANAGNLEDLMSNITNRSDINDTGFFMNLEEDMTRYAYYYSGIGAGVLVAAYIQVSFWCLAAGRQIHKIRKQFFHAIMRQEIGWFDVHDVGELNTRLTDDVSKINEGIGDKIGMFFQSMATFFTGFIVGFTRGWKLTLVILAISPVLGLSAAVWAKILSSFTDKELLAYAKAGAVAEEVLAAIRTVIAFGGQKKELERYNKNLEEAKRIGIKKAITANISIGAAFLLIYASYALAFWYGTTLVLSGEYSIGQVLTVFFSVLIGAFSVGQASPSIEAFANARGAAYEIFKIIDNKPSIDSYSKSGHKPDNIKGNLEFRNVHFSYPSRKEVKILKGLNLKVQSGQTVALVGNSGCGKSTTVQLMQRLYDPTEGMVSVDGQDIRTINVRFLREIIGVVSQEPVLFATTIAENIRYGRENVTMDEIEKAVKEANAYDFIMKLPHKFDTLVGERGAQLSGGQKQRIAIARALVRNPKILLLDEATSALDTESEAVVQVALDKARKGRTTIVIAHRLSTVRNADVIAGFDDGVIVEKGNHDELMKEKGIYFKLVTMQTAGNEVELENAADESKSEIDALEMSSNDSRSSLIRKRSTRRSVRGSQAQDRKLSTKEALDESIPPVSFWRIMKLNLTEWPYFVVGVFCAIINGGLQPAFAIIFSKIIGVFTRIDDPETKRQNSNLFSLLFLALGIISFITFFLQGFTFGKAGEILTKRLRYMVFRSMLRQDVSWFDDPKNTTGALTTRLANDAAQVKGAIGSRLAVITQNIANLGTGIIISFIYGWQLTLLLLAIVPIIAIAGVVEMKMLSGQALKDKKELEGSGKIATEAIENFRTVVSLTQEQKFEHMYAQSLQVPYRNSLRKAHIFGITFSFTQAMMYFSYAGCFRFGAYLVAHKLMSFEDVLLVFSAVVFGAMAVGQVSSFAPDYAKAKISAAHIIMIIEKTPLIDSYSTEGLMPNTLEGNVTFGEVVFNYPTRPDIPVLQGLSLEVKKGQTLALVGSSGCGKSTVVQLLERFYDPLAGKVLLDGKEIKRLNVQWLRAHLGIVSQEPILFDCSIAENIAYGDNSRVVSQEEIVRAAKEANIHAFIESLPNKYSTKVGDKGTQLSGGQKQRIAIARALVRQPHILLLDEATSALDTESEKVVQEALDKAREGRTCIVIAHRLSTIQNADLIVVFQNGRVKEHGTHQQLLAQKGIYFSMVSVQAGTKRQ
- Format: in vivo
- CONDITIONS USED: EC50, K1–K1 baseline (2T4K), human, tariquidar plasma concentration at end of PET scan, 0-40 min
ENDPOINT: EC50 (nM)

INSERT INTO results (item_smiles, endpoint, observed_measurement) VALUES
  ('COc1cc2c(cc1OC)CN(CCc1ccc(NC(=O)c3cc(OC)c(OC)cc3NC(=O)c3cnc4ccccc4c3)cc1)CC2', 'EC50', 813);
